Measured Relative L-arabinose transport S. cerevisiae (PgLAT2 transporter) accompanies every entry in the list below.
- system_under_test: PgLAT2 transporter (Meyerozyma guilliermondii)
- protocol_summary: L-arabinose transport by PgLAT2 transporter expressed in S. cerevisiae BFY605
quantity_kind: Relative L-arabinose transport S. cerevisiae (PgLAT2 transporter)

compound	result
O=C[C@H](O)[C@@H](O)[C@H](O)CO	0
N#CC(C#N)=NNc1cccc(Cl)c1	2
C(=NC1CCCCC1)=NC1CCCCC1	36
OC[C@H]1O[C@H](O[C@H]2[C@H](O)[C@@H](O)C(O)O[C@@H]2CO)[C@H](O)[C@@H](O)[C@@H]1O (mixture of isomers)	30

Cited source: patent US8841090B2
